Reported logD by item:
# PROTOCOL DESCRIPTION: Experimental LogD (partition coefficient)
# EXPERIMENTAL PARAMETERS: not stated, Partition Coeff LogD
TEST READOUT: logD

>>> test_value("CC(=O)N[C@@H](CCCCN=[N+]=[N-])C(=O)NCCC(=O)N[C@@H](CC(C)C)C(=O)N[C@@H](CCC(=O)O)C(=O)N[C@@H](Cc1ccccc1)C(=O)N[C@]1(C)CCCCCCC=CCCC[C@@](C)(C(=O)N[C@@H](CO)C(=O)N[C@@H](C)C(=O)N[C@@H](C)C(N)=O)NC(=O)[C@H](CC2CCC2)NC(=O)[C@H](CCC(N)=O)NC(=O)[C@H](C)NC(=O)[C@H](Cc2c[nH]c3ccccc23)NC(=O)[C@H](Cc2ccc(O)cc2)NC(=O)[C@H](CCC(=O)O)NC1=O")
2.5
>>> test_value("CC(=O)N[C@@H](CCCCN=[N+]=[N-])C(=O)NCCC(=O)N[C@@H](CC(C)C)C(=O)NC(C)(C)C(=O)N[C@@H](Cc1ccccc1)C(=O)N[C@]1(C)CCCCCCC=CCCC[C@@](C)(C(=O)N[C@@H](CO)C(=O)N[C@@H](C)C(=O)N[C@@H](C)C(N)=O)NC(=O)[C@H](CC2CCC2)NC(=O)[C@H](CCC(N)=O)NC(=O)[C@H](C)NC(=O)[C@H](Cc2c[nH]c3ccccc23)NC(=O)[C@H](Cc2ccc(O)cc2)NC(=O)[C@H](CCC(=O)O)NC1=O")
3.06

Data credit: paper PMC10786919
